- ASSAY METHOD TEXT: Compound was tested for its binding affinity at Thromboxane A2/ Prostaglandin H2 receptor by measuring its ability to displace [3H]U-46619 from guinea pig platelets
pKi: −log10 of the molar value.
Entries and their pKi values follow.
ENDPOINT LABEL: pKi

{"COMPOUND": "COc1cc(OC)c2c(c1)ncn2C/C=C1\\c2ccccc2COc2ccc(C(=O)O)cc21", "ENDPOINT LABEL": "pKi", "RECORDED MEASUREMENT": 8.21}
{"COMPOUND": "O=C(O)c1ccc2c(c1)/C(=C/Cn1cnc3ccc(Cl)cc31)c1ccccc1CO2", "ENDPOINT LABEL": "pKi", "RECORDED MEASUREMENT": 7.82}
{"COMPOUND": "O=C(O)c1ccc2c(c1)/C(=C/Cn1cnc3cc4ccccc4cc31)c1ccccc1CO2", "ENDPOINT LABEL": "pKi", "RECORDED MEASUREMENT": 6.55}
{"COMPOUND": "O=C(O)c1ccc2c(c1)/C(=C/Cn1cnc3cc(C(=O)O)ccc31)c1ccccc1CO2", "ENDPOINT LABEL": "pKi", "RECORDED MEASUREMENT": 7.52}
{"COMPOUND": "O=C(O)c1ccc2c(c1)/C(=C/Cn1cnc3ccc(C(O)c4ccccc4)cc31)c1ccccc1CO2 (stereo not given)", "ENDPOINT LABEL": "pKi", "RECORDED MEASUREMENT": 7.77}
{"COMPOUND": "O=C(O)c1ccc2c(c1)/C(=C/Cn1cnc3cc(F)ccc31)c1ccccc1CO2", "ENDPOINT LABEL": "pKi", "RECORDED MEASUREMENT": 8.08}
{"COMPOUND": "O=C(O)c1ccc2c(c1)/C(=C/Cn1cnc3cc(C(O)c4ccccc4)ccc31)c1ccccc1CO2 (stereo not given)", "ENDPOINT LABEL": "pKi", "RECORDED MEASUREMENT": 8.21}
{"COMPOUND": "Cc1cc2ncn(C/C=C3/c4ccccc4COc4ccc(C(=O)O)cc43)c2cc1C", "ENDPOINT LABEL": "pKi", "RECORDED MEASUREMENT": 7.19}
{"COMPOUND": "Cc1cc2ncn(CCC3c4ccccc4COc4ccc(C(=O)O)cc43)c2cc1C (stereo not given)", "ENDPOINT LABEL": "pKi", "RECORDED MEASUREMENT": 7.74}
{"COMPOUND": "COc1cc2ncn(C/C=C3\\c4ccccc4COc4ccc(C(=O)O)cc43)c2cc1OC", "ENDPOINT LABEL": "pKi", "RECORDED MEASUREMENT": 8.47}
{"COMPOUND": "O=C(O)c1ccc2c(c1)/C(=C/Cn1cnc3cc4c(cc31)OCO4)c1ccccc1CO2", "ENDPOINT LABEL": "pKi", "RECORDED MEASUREMENT": 8.57}
{"COMPOUND": "O=C(O)c1ccc2c(c1)/C(=C/Cn1cnc3cc(C(F)(F)F)ccc31)c1ccccc1CO2", "ENDPOINT LABEL": "pKi", "RECORDED MEASUREMENT": 8.66}
{"COMPOUND": "O=C(O)c1ccc2c(c1)/C(=C/Cn1cnc3cc(C(=O)NCc4ccccc4)ccc31)c1ccccc1CO2", "ENDPOINT LABEL": "pKi", "RECORDED MEASUREMENT": 9.04}
{"COMPOUND": "O=C(O)c1ccc2c(c1)/C(=C/Cn1cnc3cc(Cl)ccc31)c1ccccc1CO2", "ENDPOINT LABEL": "pKi", "RECORDED MEASUREMENT": 8.22}
{"COMPOUND": "Cc1cc2ncn(C/C=C3\\c4cc(C(=O)O)ccc4COc4ccccc43)c2cc1C", "ENDPOINT LABEL": "pKi", "RECORDED MEASUREMENT": 5.89}
{"COMPOUND": "Cc1cccc2c1ncn2C/C=C1\\c2ccccc2COc2ccc(C(=O)O)cc21", "ENDPOINT LABEL": "pKi", "RECORDED MEASUREMENT": 7.77}
{"COMPOUND": "Cc1ccc2ncn(C/C=C3\\c4ccccc4COc4ccc(C(=O)O)cc43)c2c1", "ENDPOINT LABEL": "pKi", "RECORDED MEASUREMENT": 7.64}
{"COMPOUND": "COc1ccc2c(c1)ncn2C/C=C1\\c2ccccc2COc2ccc(C(=O)O)cc21", "ENDPOINT LABEL": "pKi", "RECORDED MEASUREMENT": 8.49}
{"COMPOUND": "COc1cc(OC)c2ncn(C/C=C3\\c4ccccc4COc4ccc(C(=O)O)cc43)c2c1", "ENDPOINT LABEL": "pKi", "RECORDED MEASUREMENT": 7.06}
{"COMPOUND": "Cc1cc2ncn(C/C=C3\\c4ccccc4COc4cc(C(=O)O)ccc43)c2cc1C", "ENDPOINT LABEL": "pKi", "RECORDED MEASUREMENT": 5.74}
